Overview of reported pKi across a group of compounds:
Target: SBC (SOCS2-ElonginB-ElonginC) (Homo sapiens, UniProt O14508+Q15369+Q15370)
Sequence (O14508 32-198): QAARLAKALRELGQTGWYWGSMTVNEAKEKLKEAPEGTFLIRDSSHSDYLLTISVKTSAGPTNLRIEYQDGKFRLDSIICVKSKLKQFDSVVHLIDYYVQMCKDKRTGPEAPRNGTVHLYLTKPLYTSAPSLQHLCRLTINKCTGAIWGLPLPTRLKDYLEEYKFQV
Sequence (Q15370 1-104 partner limits assumed): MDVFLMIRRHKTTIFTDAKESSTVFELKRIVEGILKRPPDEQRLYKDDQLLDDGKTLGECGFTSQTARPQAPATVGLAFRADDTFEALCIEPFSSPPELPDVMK
Sequence (Q15369 17-112 partner limits assumed): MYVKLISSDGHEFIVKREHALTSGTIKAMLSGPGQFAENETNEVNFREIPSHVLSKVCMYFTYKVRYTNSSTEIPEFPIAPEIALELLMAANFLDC
Assay: 19F ligand-observed CPMG NMR displacement of spy molecule 3
Where a SMILES comes first, the peptide text is derived from it. [ ]: non-standard residue; d: D form. pY = N[C@@H](Cc1ccc(OP(=O)(O)O)cc1)C(=O)O
The scale used: pKi is minus the common logarithm of the concentration in molar units.

The following compounds have reported results that may help.
[
  {
    "Compound": "CC[C@H](C)[C@H](NC(=O)[C@H](CO)NC(=O)[C@H](C)NC(=O)[C@H](Cc1ccc(OP(=O)(O)O)cc1)NC(=O)[C@H](CC(=O)O)NC(=O)[C@@H]1CCCN1C(=O)[C@@H](NC(=O)[C@@H]1CCCN1)C(C)C)C(=O)N[C@@H](Cc1c[nH]cn1)C(=O)N[C@H](C(=O)N[C@H](C(N)=O)C(C)C)[C@@H](C)CC [PVPDpYASIHIV] (H-PVPD[pY]ASIHIV-NH2)",
    "Assay Metric": "pKi",
    "Quantitative Readout": 6.30
  },
  {
    "Compound": "CC[C@H](C)[C@H](NC(=O)[C@H](CO)NC(=O)[C@@H](NC(=O)[C@H](Cc1ccc(OP(=O)(O)O)cc1)NC(=O)[C@H](CC(=O)O)NC(=O)[C@@H]1CCCN1C(=O)[C@H](C)NC(=O)[C@@H]1CCCN1)[C@@H](C)O)C(=O)N[C@@H](Cc1c[nH]cn1)C(=O)N[C@H](C(=O)N[C@H](C(N)=O)C(C)C)[C@@H](C)CC",
    "Assay Metric": "pKi",
    "Quantitative Readout": 5.47
  }
]

Can you share its pKi? I mean this compound: CC[C@H](C)[C@H](NC(=O)[C@H](CO)NC(=O)[C@@H](NC(=O)[C@H](Cc1ccc(OP(=O)(O)O)cc1)NC(=O)[C@H](CC(=O)O)NC(=O)[C@@H]1CCCN1C(=O)[C@H](Cc1ccc(O)cc1)NC(=O)[C@@H]1CCCN1)[C@@H](C)O)C(=O)N[C@@H](Cc1c[nH]cn1)C(=O)N[C@H](C(=O)N[C@H](C(N)=O)C(C)C)[C@@H](C)CC [V(−3)Y] (H-PYPD[pY]TSIHIV-NH2)
5.48

Can you share its pKi? I mean this compound: CC(C)C[C@H](NC(=O)[C@H](C)NC(=O)[C@@H](NC(=O)[C@H](Cc1ccc(OP(=O)(O)O)cc1)NC(=O)[C@H](CCC(=O)O)NC(=O)[C@H](Cc1ccccc1)NC(=O)[C@H](CO)NC(=O)[C@H](C)N)[C@@H](C)O)C(=O)N[C@@H](CC(=O)O)C(=O)N1CCC[C@H]1C(=O)N[C@@H](CO)C(N)=O [ASFEpYTALDPS] (H-ASFE[pY]TALDPS-NH2)
4.76

Can you share its pKi? I mean this compound: CC[C@H](C)[C@H](NC(=O)[C@@H](NC(=O)[C@H](Cc1ccc(OP(=O)(O)O)cc1)NC(=O)[C@H](CCC(=O)O)NC(=O)[C@H](Cc1ccccc1)NC(=O)[C@H](CO)NC(=O)[C@H](C)N)[C@@H](C)O)C(=O)N[C@@H](CC(C)C)C(=O)N[C@@H](CC(=O)O)C(=O)N[C@@H](C)C(=O)N[C@@H](CO)C(N)=O [ASFEpYTILDAS] (H-ASFE[pY]TILDAS-NH2)
5.16

Can you share its pKi? I mean this compound: CC[C@H](C)[C@H](NC(=O)[C@H](Cc1c[nH]cn1)NC(=O)[C@H](C)NC(=O)[C@H](CO)NC(=O)[C@@H](NC(=O)[C@H](Cc1ccc(OP(=O)(O)O)cc1)NC(=O)[C@H](CC(=O)O)NC(=O)[C@@H]1CCCN1C(=O)[C@@H](NC(=O)[C@@H]1CCCN1)C(C)C)[C@@H](C)O)C(=O)N[C@H](C(N)=O)C(C)C [PVPDpYTSAHIV] (H-PVPD[pY]TSAHIV-NH2)
5.47

====

Molecular target: SBC (SOCS2-ElonginB-ElonginC) (Homo sapiens, UniProt O14508+Q15369+Q15370)
Experiment: 19F ligand-observed CPMG NMR displacement of spy molecule 3
Where a SMILES comes first, the peptide text is derived from it. [ ]: non-standard residue; d: D form. pY = N[C@@H](Cc1ccc(OP(=O)(O)O)cc1)C(=O)O
Overview of reported Ki across a group of compounds:
Quick note: give the figure in µM, leave out the unit.

[
  {
    "Compound": "CC[C@H](C)[C@H](NC(=O)[C@H](CO)NC(=O)[C@@H](NC(=O)[C@H](Cc1ccc(OP(=O)(O)O)cc1)NC(=O)[C@H](CC(=O)O)NC(=O)[C@@H]1CCCN1C(=O)[C@@H](NC(=O)[C@H](C)N)C(C)C)[C@@H](C)O)C(=O)N[C@@H](Cc1c[nH]cn1)C(=O)N[C@H](C(=O)N[C@H](C(N)=O)C(C)C)[C@@H](C)CC",
    "Readout Unit": "µM",
    "Ki": 0.9
  }
]

Alright, here's another compound for you.
Can you share its Ki? I mean this compound: CC[C@H](C)[C@H](NC(=O)[C@@H](NC(=O)[C@H](Cc1ccc(OP(=O)(O)O)cc1)NC(=O)[C@H](CCC(=O)O)NC(=O)[C@H](Cc1ccccc1)NC(=O)[C@H](CO)NC(=O)[C@H](C)N)[C@@H](C)O)C(=O)N[C@@H](CC(C)C)C(=O)N[C@@H](C)C(=O)N1CCC[C@H]1C(=O)N[C@@H](CO)C(N)=O [ASFEpYTILAPS] (H-ASFE[pY]TILAPS-NH2)
14.1
